- SYSTEM NAME: Mac-1/ICAM-1 (Homo sapiens, UniProt P05107+P11215)
- Sequence (P05107 23-769, other chains not shown): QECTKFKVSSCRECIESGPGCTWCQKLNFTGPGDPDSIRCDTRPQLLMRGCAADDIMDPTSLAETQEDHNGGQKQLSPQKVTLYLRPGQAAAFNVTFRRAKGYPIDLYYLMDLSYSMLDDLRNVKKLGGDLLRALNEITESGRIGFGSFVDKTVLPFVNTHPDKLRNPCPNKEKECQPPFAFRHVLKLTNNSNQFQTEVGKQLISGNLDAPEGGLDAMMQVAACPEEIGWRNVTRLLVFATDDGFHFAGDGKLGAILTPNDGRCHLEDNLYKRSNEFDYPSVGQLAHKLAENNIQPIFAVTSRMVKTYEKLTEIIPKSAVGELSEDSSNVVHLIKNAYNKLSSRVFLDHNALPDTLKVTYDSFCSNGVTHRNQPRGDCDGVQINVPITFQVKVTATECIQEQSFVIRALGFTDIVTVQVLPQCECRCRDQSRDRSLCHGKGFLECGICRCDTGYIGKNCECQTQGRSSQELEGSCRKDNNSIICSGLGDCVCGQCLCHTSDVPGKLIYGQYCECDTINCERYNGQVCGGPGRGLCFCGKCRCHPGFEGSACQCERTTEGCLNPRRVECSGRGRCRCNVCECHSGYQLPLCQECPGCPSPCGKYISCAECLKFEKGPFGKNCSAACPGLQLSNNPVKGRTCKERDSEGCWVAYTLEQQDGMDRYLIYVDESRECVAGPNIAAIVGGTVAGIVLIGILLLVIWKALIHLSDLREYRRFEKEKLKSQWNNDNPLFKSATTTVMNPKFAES
- ASSAY SUMMARY: Mac-1/ICAM-1 ELISA
- COND: Mac-1 receptor coated plates, 5dICAM-Fc binding
MEASURE: IC50 (nM)

Cc1nc(NC(=O)Cc2cccc3[nH]ncc23)sc1C(=O)N[C@@H](CNC(=O)c1cc(O)cc(O)c1)C(=O)O	12
O=C(NC[C@H](NC(=O)c1sc(C(=O)NCc2cccc(O)c2)cc1Br)C(=O)O)c1cccs1	25
Cc1nc(NCCc2cccc(O)c2)sc1C(=O)N[C@@H](CNC(=O)c1cc(O)cc(O)c1)C(=O)O	27
O=C(Cc1cccc(O)c1)Nc1nc(Cl)c(C(=O)N[C@@H](CNC(=O)c2cccs2)C(=O)O)s1	32
Cc1nc(NC(=O)Cc2cccc(O)c2)sc1C(=O)N[C@@H](CNC(=O)c1cccs1)C(=O)O	58
Cc1nc(NC(=O)Cc2cccc(O)c2)sc1C(=O)N[C@@H](CNC(=O)c1ccsc1)C(=O)O	30
CCc1cc(C(=O)NCc2cccc3[nH]ncc23)sc1C(=O)N[C@@H](CNC(=O)c1cccs1)C(=O)O	25
CCc1cc(C(=O)NCc2cccc(O)c2)sc1C(=O)N[C@@H](CNC(=O)c1cccs1)C(=O)O	31
CC(C)c1cc(C(=O)NCc2cccc3[nH]ncc23)sc1C(=O)N[C@@H](CNC(=O)c1cccs1)C(=O)O	17
Cc1cc(C(=O)NCCc2cccc(O)c2)sc1C(=O)N[C@@H](CNC(=O)c1cc(O)cc(O)c1)C(=O)O	207
Cc1cc(C(=O)NCc2cccc(O)c2)sc1C(=O)N[C@@H](CNC(=O)c1cccc(O)c1)C(=O)O	23
Cc1nc(NCCCc2cccc3[nH]ncc23)sc1C(=O)N[C@@H](CNC(=O)c1cccs1)C(=O)O	294
Cc1cc(C(=O)NCc2cccc3[nH]ncc23)sc1C(=O)N[C@@H](CNC(=O)c1cccs1)C(=O)O	48
Cc1nc(NC(=O)Cc2cccc(O)c2)sc1C(=O)N[C@@H](CNC(=O)c1cccc(O)c1)C(=O)O	300
Cc1cc(C(=O)NCc2cccc(O)c2)sc1C(=O)N[C@@H](CNC(=O)c1cc(O)cc(O)c1)C(=O)O	7
Cc1nc(NC(=O)CCc2cccc(O)c2)sc1C(=O)N[C@@H](CNC(=O)c1cc(O)cc(O)c1)C(=O)O	20
Cc1nc(NC(=O)Cc2cccc3[nH]ncc23)sc1C(=O)N[C@@H](CNC(=O)c1cccs1)C(=O)O	89
CC(C)c1cc(C(=O)NCc2cccc(O)c2)sc1C(=O)N[C@@H](CNC(=O)c1cccs1)C(=O)O	46
O=C(NC[C@H](NC(=O)c1sc(C(=O)NCc2cccc3[nH]ncc23)cc1C(F)(F)F)C(=O)O)c1cccs1	55
CC(C)(C)c1cc(C(=O)NCc2cccc(O)c2)sc1C(=O)N[C@@H](CNC(=O)c1cccs1)C(=O)O	300
O=C(Cc1cccc(O)c1)Nc1nc(C(F)(F)F)c(C(=O)N[C@@H](CNC(=O)c2cccs2)C(=O)O)s1	82
O=C(NC[C@H](NC(=O)c1sc(C(=O)NCc2cccc(O)c2)cc1Cl)C(=O)O)c1cccs1	62
